Test system: HL-60(TB) leukemia
Assay: NCI-60 one-dose screen, 48 h (100 = growth as untreated, 0 = no growth, -100 = all killed)
Settings: 10 µM unless noted
The panel holds about 83,000 compounds, 20% with a hit somewhere; the sample as a whole holds those more often.
Here the recorded growth is given for each entry.
readout-type: growth (%)

{"smiles": "O=[N+]([O-])c1ccc(Br)o1", "readout-type": "growth", "reported-value": 74.8}
{"smiles": "Nc1nc(N)c(-c2ccc(Cl)cc2)c(/C=C/c2ccc([N+](=O)[O-])cc2)n1", "readout-type": "growth", "reported-value": 47.8}
{"smiles": "N=C(N)c1ccc(OCCSCCOc2ccc(C(=N)N)cc2)cc1", "readout-type": "growth", "reported-value": 77.9}
{"smiles": "COc1ccc(/C=C(\\C#N)C(=O)Nc2cccc(Nc3nc(SC)nc(-c4cccc([N+](=O)[O-])c4)c3C#N)c2)cc1OC", "readout-type": "growth", "reported-value": 95}
{"smiles": "COc1ccc(Cn2nc3c(c2-c2cc(OC)c(OC)c(OC)c2)-c2oncc2CC3)cc1", "readout-type": "growth", "reported-value": 54.4}
{"smiles": "Cn1cc(-c2csc(-c3cn(CCN)c4ccccc34)n2)c2cccnc21", "readout-type": "growth", "reported-value": 26.5}
{"smiles": "COc1cc(OC)c(/C=C/C(=O)c2c(N)cc(OC)cc2OC)c(OC)c1", "readout-type": "growth", "reported-value": 12.7}
